- Tested on: Escherichia coli
- protocolText: Antibacterial activity against Escherichia coli ATCC 25922 assessed as reduction in bacterial growth by CLSI protocol based method
- Type: functional
Below is a list of entries, each paired with its recorded MIC value.
Dear colleague, please return just the value in µg/mL, with no unit written.

samplesmiles=Nc1ncc(C(=O)N/N=C/c2c(O)ccc3ccc(=O)oc23)s1 observable=MIC measurementunit=µg/mL experimentalresult=128
samplesmiles=Cc1cc(NS(=O)(=O)c2ccc(N/N=C/c3c(O)ccc4ccc(=O)oc34)cc2)no1 observable=MIC measurementunit=µg/mL experimentalresult=512
samplesmiles=O=c1ccc2ccc(O)c(/C=N/NS(=O)(=O)c3cccc4c3OCC4)c2o1 observable=MIC measurementunit=µg/mL experimentalresult=512

Incoming: What MIC value was documented for this compound, O=C(N/N=C/c1c(O)ccc2ccc(=O)oc12)c1ccccc1 ?
Outgoing: 2

Incoming: Repeat with O=C(N/N=C/c1c(O)ccc2ccc(=O)oc12)c1ccncc1
Outgoing: 8

---

- Test system: Escherichia coli
- protocolText: Antibacterial activity against Escherichia coli ATCC 25922 assessed as reduction in bacterial growth by CLSI protocol based method
- Assay type: functional
observable: MIC
Answer format: number, then unit.

A selection of reference data follows.
samplesmiles=Nc1ccc(C(=O)N/N=C/c2c(O)ccc3ccc(=O)oc23)cc1 experimentalresult="512 mg/L"
samplesmiles=O=c1ccc2ccc(O)c(/C=N/Nc3ccc(S(=O)(=O)Nc4nccs4)cc3)c2o1 experimentalresult="512 mg/L"
samplesmiles=O=C(N/N=C/c1c(O)ccc2ccc(=O)oc12)c1ccc(Cl)cc1 experimentalresult="256 mg/L"
samplesmiles=O=C(N/N=C/c1c(O)ccc2ccc(=O)oc12)c1ccc(F)cc1 experimentalresult="256 mg/L"

Consider the record given below.
Incoming: What MIC value was documented for this molecule, O=c1ccc2ccc(O)c(/C=N/NS(=O)(=O)Cc3ccccc3)c2o1 ?
Outgoing: 256 mg/L

---

- Tested on: Escherichia coli
- protocolText: Antibacterial activity against Escherichia coli ATCC 25922 assessed as reduction in bacterial growth by CLSI protocol based method
- Type: functional
Below is a list of entries, each paired with its recorded MIC value.
Dear colleague, please return just the value in µg/mL, with no unit written.

samplesmiles=O=c1ccc2ccc(O)c(/C=N/NS(=O)(=O)c3ccccc3)c2o1 subjectoftest="Escherichia coli" observable=MIC measurementunit=µg/mL experimentalresult=512
samplesmiles=CC(=O)Nc1ccc(S(=O)(=O)N/N=C/c2c(O)ccc3ccc(=O)oc23)cc1 subjectoftest="Escherichia coli" observable=MIC measurementunit=µg/mL experimentalresult=256
samplesmiles=O=C(N/N=C/c1c(O)ccc2ccc(=O)oc12)c1ccc([N+](=O)[O-])cc1 subjectoftest="Escherichia coli" observable=MIC measurementunit=µg/mL experimentalresult=4
samplesmiles=N=C(N)N/N=C/c1c(O)ccc2ccc(=O)oc12 subjectoftest="Escherichia coli" observable=MIC measurementunit=µg/mL experimentalresult=256
samplesmiles=COC(=O)N/N=C/c1c(O)ccc2ccc(=O)oc12 subjectoftest="Escherichia coli" observable=MIC measurementunit=µg/mL experimentalresult=1

Consider the record given below.
Incoming: What MIC value was documented for this molecule, Cc1ccc(S(=O)(=O)N/N=C/c2c(O)ccc3ccc(=O)oc23)cc1 ?
Outgoing: 256
